method: Adding a small amount of 12% sodium hypochlorite aqueous solution to the cross-linking agent compound
Type: physicochemical
test-settings: small amount of 12% sodium hypochlorite aqueous solution added to the compound
attribute-measured: degradation product generated (confirmed by 1H-NMR)

**Query** // query degradation product generated (confirmed by 1H-NMR) value for entry C=CCOC(=O)NNC(=O)OCCCCCCOC(=O)NNC(=O)OCC=C
**Result** 1,6-hexanediol

###

method: Water solubility of degradation products in ion exchange water at 20° C.
test-settings: one gram in 10 mL of ion exchange water

compound: NCCCCCCN [hexamethylenediamine]
water solubility: soluble

compound: O=C(O)c1cc(C(=O)O)cc(S(=O)(=O)O)c1 [5-sulfoisophthalic acid]
water solubility: soluble

compound: OCCOCCOCCO [triethylene glycol]
water solubility: soluble

compound: OCCCCCCO [1,6-hexanediol]
water solubility: soluble
